molecular target: CXCL2 (human, UniProt P19875 35-107); experiment: BLI
Measured Metric: Kd
Respond with a number, then the unit of measure.

## Task Given the entry P1156 (evasin from Ixodes ricinus), purified, C-terminal StrepII:His tag (natural protein) DGGADDDNELFTVQYCGMNCTKDEGGTWTGCTGKKEGCKCYHESGKNYGLCLSTEYTDFSQYGNPSDSEIEAAKPKRSDTLSH , report its measured Kd.
## Result 51 nM
